- targetOrTestSystem: T1, human tissue factor pathway inhibitor (TFPI) (human, UniProt P10646 29-304, limits assumed)
- T1 construct: bought; also called hTFPI; human TFPI
- T1 sequence (looked up): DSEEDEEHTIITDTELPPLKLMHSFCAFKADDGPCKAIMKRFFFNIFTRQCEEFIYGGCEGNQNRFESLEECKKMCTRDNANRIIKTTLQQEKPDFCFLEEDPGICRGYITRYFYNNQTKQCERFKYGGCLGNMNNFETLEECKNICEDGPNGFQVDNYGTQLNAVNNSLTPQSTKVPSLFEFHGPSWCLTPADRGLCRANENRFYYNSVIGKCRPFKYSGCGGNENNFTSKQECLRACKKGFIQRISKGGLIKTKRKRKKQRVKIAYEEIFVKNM
- test: competitive ELISA

| binder | variant/HC_D62R, ratio |
| --- | --- |
| 4B7 HC N32D+D62R+H107M+Y112D/LC F31I+D33R (Fab, V domains shown) VH: QVQLQQSGPGLVKPSQTLSLTCAISGDSVSSDSAAWSWIRQSPGRGLEWLGIIYKRSKWYNRYAVSVKSRITINPDTSKNQFSLQLNSVTPEDTAVYYCARWHSDKMWGFDDWGQGTLVTVSS VL: DIVMTQSPLSLPVTPGEPASISCRSSQSLVISRGNTYLNWYLQKPGQSPQLLIYKGSNRASGVPDRFSGSGSGTDFTLKISRVEAEDVGVYYCQQYDSYPLTFGQGTKVEIKR | 30.1 |
| 4B7 HC D62R+H107M+Y112D/LC N35T+D97T (Fab, V domains shown) VH: QVQLQQSGPGLVKPSQTLSLTCAISGDSVSSNSAAWSWIRQSPGRGLEWLGIIYKRSKWYNRYAVSVKSRITINPDTSKNQFSLQLNSVTPEDTAVYYCARWHSDKMWGFDDWGQGTLVTVSS VL: DIVMTQSPLSLPVTPGEPASISCRSSQSLVFSDGTTYLNWYLQKPGQSPQLLIYKGSNRASGVPDRFSGSGSGTDFTLKISRVEAEDVGVYYCQQYTSYPLTFGQGTKVEIKR | 20.1 |
| 4B7 HC N32D+D62K+Y112D/LC S32R+D33F+N35I+D97T (Fab, V domains shown) VH: QVQLQQSGPGLVKPSQTLSLTCAISGDSVSSDSAAWSWIRQSPGRGLEWLGIIYKRSKWYNKYAVSVKSRITINPDTSKNQFSLQLNSVTPEDTAVYYCARWHSDKHWGFDDWGQGTLVTVSS VL: DIVMTQSPLSLPVTPGEPASISCRSSQSLVFRFGITYLNWYLQKPGQSPQLLIYKGSNRASGVPDRFSGSGSGTDFTLKISRVEAEDVGVYYCQQYTSYPLTFGQGTKVEIKR | 22.7 |
| 4B7 HC N32D+D62R+H107M+Y112D/LC F31M+S32R+D33F+N35I (Fab, V domains shown) VH: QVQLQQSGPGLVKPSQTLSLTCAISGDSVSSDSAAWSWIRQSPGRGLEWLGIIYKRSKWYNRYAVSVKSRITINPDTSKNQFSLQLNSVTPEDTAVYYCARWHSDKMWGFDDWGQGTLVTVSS VL: DIVMTQSPLSLPVTPGEPASISCRSSQSLVMRFGITYLNWYLQKPGQSPQLLIYKGSNRASGVPDRFSGSGSGTDFTLKISRVEAEDVGVYYCQQYDSYPLTFGQGTKVEIKR | 27 |
| 4B7 HC N32D+K55Y+D62Q+Y112D/LC F31I+D33F+N35I (Fab, V domains shown) VH: QVQLQQSGPGLVKPSQTLSLTCAISGDSVSSDSAAWSWIRQSPGRGLEWLGIIYYRSKWYNQYAVSVKSRITINPDTSKNQFSLQLNSVTPEDTAVYYCARWHSDKHWGFDDWGQGTLVTVSS VL: DIVMTQSPLSLPVTPGEPASISCRSSQSLVISFGITYLNWYLQKPGQSPQLLIYKGSNRASGVPDRFSGSGSGTDFTLKISRVEAEDVGVYYCQQYDSYPLTFGQGTKVEIKR | 25.6 |
| 4B7 HC N32D+D62R+Y112D/LC V30L+S32R+D33F+N35I+T36N+D97T (Fab, V domains shown) VH: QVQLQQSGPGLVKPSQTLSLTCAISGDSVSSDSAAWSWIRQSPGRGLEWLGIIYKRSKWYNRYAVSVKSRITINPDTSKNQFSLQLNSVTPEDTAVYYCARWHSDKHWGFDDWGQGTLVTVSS VL: DIVMTQSPLSLPVTPGEPASISCRSSQSLLFRFGINYLNWYLQKPGQSPQLLIYKGSNRASGVPDRFSGSGSGTDFTLKISRVEAEDVGVYYCQQYTSYPLTFGQGTKVEIKR | 23.9 |
| 4B7 HC N32D+D62Q+Y112D/LC S32R+D33R+N35I+D97T (Fab, V domains shown) VH: QVQLQQSGPGLVKPSQTLSLTCAISGDSVSSDSAAWSWIRQSPGRGLEWLGIIYKRSKWYNQYAVSVKSRITINPDTSKNQFSLQLNSVTPEDTAVYYCARWHSDKHWGFDDWGQGTLVTVSS VL: DIVMTQSPLSLPVTPGEPASISCRSSQSLVFRRGITYLNWYLQKPGQSPQLLIYKGSNRASGVPDRFSGSGSGTDFTLKISRVEAEDVGVYYCQQYTSYPLTFGQGTKVEIKR | 17.2 |
| B9.7 (4B7 HC N32D+D62R+Y112D/LC S32R+N35I) (Fab, V domains shown) VH: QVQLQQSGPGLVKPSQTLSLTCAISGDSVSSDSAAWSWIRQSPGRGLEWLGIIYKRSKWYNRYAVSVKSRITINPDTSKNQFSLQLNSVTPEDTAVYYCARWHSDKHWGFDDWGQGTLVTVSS VL: DIVMTQSPLSLPVTPGEPASISCRSSQSLVFRDGITYLNWYLQKPGQSPQLLIYKGSNRASGVPDRFSGSGSGTDFTLKISRVEAEDVGVYYCQQYDSYPLTFGQGTKVEIKR | 26.1 |
| 4B7 HC Q1E+N32D+G44S+K55Y+D62R+Y112D/LC V30L+S32R+D33F+N35I+T36N+D97T (Fab, V domains shown) VH: EVQLQQSGPGLVKPSQTLSLTCAISGDSVSSDSAAWSWIRQSPSRGLEWLGIIYYRSKWYNRYAVSVKSRITINPDTSKNQFSLQLNSVTPEDTAVYYCARWHSDKHWGFDDWGQGTLVTVSS VL: DIVMTQSPLSLPVTPGEPASISCRSSQSLLFRFGINYLNWYLQKPGQSPQLLIYKGSNRASGVPDRFSGSGSGTDFTLKISRVEAEDVGVYYCQQYTSYPLTFGQGTKVEIKR | 20.4 |
| 4B7 HC Q1E+N32D+G44S+K55Y+D62R+Y112D/LC S32R+D33F+N35I+D97T (Fab, V domains shown) VH: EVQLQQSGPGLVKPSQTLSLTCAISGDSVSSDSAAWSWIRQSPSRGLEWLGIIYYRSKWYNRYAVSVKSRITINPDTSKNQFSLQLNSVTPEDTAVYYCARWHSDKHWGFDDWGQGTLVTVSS VL: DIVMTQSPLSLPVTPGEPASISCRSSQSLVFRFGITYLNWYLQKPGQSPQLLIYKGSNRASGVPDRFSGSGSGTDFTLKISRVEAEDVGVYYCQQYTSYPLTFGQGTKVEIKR | 26.3 |
